system: HCT-15 (Colorectal Carcinoma); experiment: Bliss excess, mean over the matrix (fraction); higher = more synergy;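 note: after 72 h of two-drug dosing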
measured-endpoint: Bliss excess
Give the figure only, with no unit attached.

| compound | Bliss excess |
| --- | --- |
| Cc1c2c(nn1C)CSCc1cc(n(C)n1)CSc1cc(c3ccccc3c1)OCCCc1c(C(=O)O)n(C)c3c-2c(Cl)ccc13 [AZD5991] + CN(C)CCCOc1ccc(-c2ccc3ncc4c(c3c2)n(C2CCOCC2)c(=O)n4C)cn1 [AZD0156] (first compound max 1 µM, 7x7, partner max 1 µM) | 0.0369 |

# input for lookup
I have this compound here, CN(C)CCCOc1ccc(-c2ccc3ncc4c(c3c2)n(C2CCOCC2)c(=O)n4C)cn1 [AZD0156] + O=C(c1cc(Cc2n[nH]c(=O)c3ccccc23)ccc1F)N1CCN(C(=O)C2CC2)CC1 [Olaparib] (first compound max 3 µM, partner max 3 µM) , and I need its recorded Bliss excess.
0.007

====

test system: 23132-87 (Gastric Carcinoma); assay: combination Emax (second highest fraction inhibited in the dose matrix, 72 h); higher = more inhibition; extreme values may be limits of the assay
We use 0.8 as the dividing line for combination Emax: on or above the line is True, below is False.

Study these solved cases before continuing.
| compound | class-label |
| --- | --- |
| COc1nnc2ccc(N3CCC(c4ccc(OCCN5CCN(C)C(=O)[C@H]5C)cc4)CC3)nn12 [AZD5153] + C[C@@H]1COCCN1C2=NC(=NC(=C2)C3(CC3)[S@](=N)(=O)C)C4=C5C=CNC5=NC=C4 [AZD6738] (first compound max 1 µM, 7x7, partner max 10 µM) | False |
| Cc1c2c(nn1C)CSCc1cc(n(C)n1)CSc1cc(c3ccccc3c1)OCCCc1c(C(=O)O)n(C)c3c-2c(Cl)ccc13 [AZD5991] + Cc1cc2ncnn2cc1Nc1ncc2c(n1)n(C1CCOCC1)c(=O)n2C [AZD7648] (first compound max 1 µM, 7x7, partner max 10 µM) | True |
| Cn1cnc2c(F)c(Nc3ccc(Br)cc3Cl)c(C(=O)NOCCO)cc21 [Selumetinib] + C=CCn1c(=O)c2cnc(Nc3ccc(N4CCN(C)CC4)cc3)nc2n1-c1cccc(C(C)(C)O)n1 [AZD1775] (first compound max 10 µM, partner max 1 µM) | False |
| COc1nnc2ccc(N3CCC(c4ccc(OCCN5CCN(C)C(=O)[C@H]5C)cc4)CC3)nn12 [AZD5153] + Cn1cnc2c(F)c(Nc3ccc(Br)cc3Cl)c(C(=O)NOCCO)cc21 [Selumetinib] (first compound max 1 µM, 7x7, partner max 10 µM) | False |
| C[C@@H](c1ccc2nccn2c1)n1nnc2ncc(-c3cnn(C)c3)nc21 [Savolitinib] + Cc1c2c(nn1C)CSCc1cc(n(C)n1)CSc1cc(c3ccccc3c1)OCCCc1c(C(=O)O)n(C)c3c-2c(Cl)ccc13 [AZD5991] (first compound max 1 µM, 7x7, partner max 1 µM) | False |
| COc1nnc2ccc(N3CCC(c4ccc(OCCN5CCN(C)C(=O)[C@H]5C)cc4)CC3)nn12 [AZD5153] + CN(CC[C@H](CSC1=CC=CC=C1)NC2=C(C=C(C=C2)S(=O)(=O)NC(=O)C3=CC=C(C=C3)N4CCC(CC4)[C@H](C5=CC=CC=C5C6=CC=C(C=C6)Cl)O)S(=O)(=O)C(F)(F)F)CCO [AZD4320] (first compound max 1 µM, 7x7, partner max 1 µM) | False |
| COc1cccc(OCCCN)c1-c1cc(Nc2cnc(C#N)cn2)n[nH]1 [Prexasertib] + C[C@@H]1COCCN1C2=NC(=NC(=C2)C3(CC3)[S@](=N)(=O)C)C4=C5C=CNC5=NC=C4 [AZD6738] (first compound max 1 µM, 7x7, partner max 10 µM) | True |
| C=CCn1c(=O)c2cnc(Nc3ccc(N4CCN(C)CC4)cc3)nc2n1-c1cccc(C(C)(C)O)n1 [AZD1775] + O=C(c1cc(Cc2n[nH]c(=O)c3ccccc23)ccc1F)N1CCN(C(=O)C2CC2)CC1 [Olaparib] (first compound max 1 µM, partner max 10 µM) | False |

Has Cc1c2c(nn1C)CSCc1cc(n(C)n1)CSc1cc(c3ccccc3c1)OCCCc1c(C(=O)O)n(C)c3c-2c(Cl)ccc13 [AZD5991] + C[C@@H]1COCCN1C2=NC(=NC(=C2)C3(CC3)[S@](=N)(=O)C)C4=C5C=CNC5=NC=C4 [AZD6738] (first compound max 1 µM, 7x7, partner max 10 µM) a recorded combination Emax greater than or equal to 0.8?
True

Then COc1cc2c(cc1OCCCCCOc1cc3c(cc1OC)C(=O)N1C=C(C)C[C@H]1C=N3)N=C[C@@H]1CC(C)=CN1C2=O [SG3199] + O=C(c1cc(Cc2n[nH]c(=O)c3ccccc23)ccc1F)N1CCN(C(=O)C2CC2)CC1 [Olaparib] (first compound max 0.001 µM, 7x7, partner max 10 µM) ?
False

# iterate: COc1nnc2ccc(N3CCC(c4ccc(OCCN5CCN(C)C(=O)[C@H]5C)cc4)CC3)nn12 [AZD5153] + CC1(C)CCC(CN2CCN(c3ccc(C(=O)NS(=O)(=O)c4ccc(NCC5CCOCC5)c([N+](=O)[O-])c4)c(Oc4cnc5[nH]ccc5c4)c3)CC2)=C(c2ccc(Cl)cc2)C1 [Venetoclax] (first compound max 1 µM, 7x7, partner max 1 µM)
False

Check NC1(C(=O)N[C@@H](CCO)c2ccc(Cl)cc2)CCN(c2ncnc3[nH]ccc23)CC1 [Capivasertib] + CC(C)n1c(=O)n(C)c2cnc3cc(F)c(-c4ccc(OCCCN5CCCCC5)nc4)cc3c21 [AZD1390] (first compound max 10 µM, 7x7, partner max 0.3 µM) too.
False

What would you report for C[C@@H]1COCCN1c1cc(C2([S@](C)(=N)=O)CC2)nc(-c2ccnc3[nH]ccc23)n1 [AZD6738] + O=C(c1cc(Cc2n[nH]c(=O)c3ccccc23)ccc1F)N1CCN(C(=O)C2CC2)CC1 [Olaparib] (first compound max 10 µM, 7x7, partner max 10 µM) ?
False
